Measured inhibition at 10 µM, listed per entry.
assayed.target: BTK (Homo sapiens, UniProt Q06187)
Sequence (Q06187 402-655 limits assumed): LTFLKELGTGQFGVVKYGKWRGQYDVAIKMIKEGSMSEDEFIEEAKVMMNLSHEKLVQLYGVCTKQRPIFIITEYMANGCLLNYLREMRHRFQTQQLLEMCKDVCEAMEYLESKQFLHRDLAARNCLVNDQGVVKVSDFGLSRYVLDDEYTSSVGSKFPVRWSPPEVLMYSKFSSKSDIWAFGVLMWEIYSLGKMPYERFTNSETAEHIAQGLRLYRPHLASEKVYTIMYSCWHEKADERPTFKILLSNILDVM
test.name: biochemical
experimental.parameters: read-out: BTK inhibition (%), 0.75 uM BTK, […] probe 3l, 15 min preincubation
Reply numerically in %, unit not repeated.

>>> measured_value("OC[C@@H](O)[C@@H](O[C@H]1O[C@H](CO)[C@@H](O)[C@H](O)[C@H]1O)[C@H](O)[C@@H](O)CO")
-16.3
>>> measured_value("CC(C)=CCc1cc2c(cc1O)oc(=O)c1c3ccc(O)cc3oc21")
17.2
>>> measured_value("Cc1cc(CN2CCN(c3c(Br)cnc4nc(-c5ccc(N6CCN(C)CC6)cc5)[nH]c34)CC2)no1")
4.3
>>> measured_value("CN(C)CCNC(=O)c1cccn2c(=O)c3cc4ccccc4cc3nc12")
5.4
>>> measured_value("O=C(CCCCCCC(=O)N/N=C/c1ccc(N(c2ccccc2)c2ccccc2)cc1)NO")
15.4
>>> measured_value("CC[C@H](Nc1ncnc2nc[nH]c12)c1oc2ccccc2c(=O)c1-c1cccc(F)c1")
8.5

Ask | Give the value of inhibition at 10 µM reported for the following: `C1=C2CCCN[C@H]2[C@@H]2C[C@H]1[C@H]1CCCCN1C2`
Reply | -2.6

Ask | Give the value of inhibition at 10 µM reported for the following: C#CCC(Cc1cnc2nc(N)nc(N)c2n1)c1ccc(C(=O)N[C@@H](CCC(=O)O)C(=O)O)cc1 (stereo partly shown)
Reply | 1.6

Ask | Give the value of inhibition at 10 µM reported for the following: `N=c1cc(N2CCCCC2)nc(N)n1OS(=O)(=O)O`
Reply | -9.3

Ask | Give the value of inhibition at 10 µM reported for the following: `CN(C)[C@@H]1C(=O)C(C(N)=O)=C(O)[C@@]2(O)C(=O)C3=C(O)c4c(O)ccc(Cl)c4[C@@](C)(O)[C@H]3C[C@@H]12`
Reply | 10.2

Ask | Give the value of inhibition at 10 µM reported for the following: `Nc1ccc(S(=O)(=O)Nc2cnc3ccccc3n2)cc1`
Reply | 8.5

###

assayed.target: BTK (Homo sapiens, UniProt Q06187)
test.name: biochemical
experimental.parameters: read-out: BTK inhibition (%), 0.75 uM BTK, […] probe 3l, 15 min preincubation
measured.quantity: inhibition at 10 µM (%)
Reply numerically in %, unit not repeated.

// worked examples, inhibition at 10 µM included
>>> measured_value("COc1ccccc1N1CCN(CCN(C(=O)C2CCCCC2)c2ccccn2)CC1")
-6.2
>>> measured_value("COC(=O)C1=C(C)NC(C)=C(C(=O)OC)C1c1ccccc1[N+](=O)[O-]")
14
>>> measured_value("Cc1c(CN2CCN(C(=O)[C@H](C)O)CC2)sc2c(N3CCOCC3)nc(-c3cnc(N)nc3)nc12")
75.2
>>> measured_value("COc1cc(OCc2cccc(-c3ccccc3)c2C)cc(OC)c1CN1CCCC[C@H]1C(=O)O")
-35.2
>>> measured_value("COc1cc(C(C)=O)ccc1O")
9

Ask | Give the value of inhibition at 10 µM reported for the following: `Cn1cc[nH]c1=S`
Reply | 14.8

Ask | Give the value of inhibition at 10 µM reported for the following: `NC(=O)N/N=C/c1ccc([N+](=O)[O-])o1`
Reply | 0.8

Ask | Give the value of inhibition at 10 µM reported for the following: `C[C@@H]1O[C@@H](OC[C@H]2O[C@@H](Oc3c(-c4ccc(OCCO)c(OCCO)c4)oc4cc(OCCO)cc(O)c4c3=O)[C@H](O)[C@@H](O)[C@@H]2O)[C@H](O)[C@H](O)[C@H]1O`
Reply | -19.5

Ask | Give the value of inhibition at 10 µM reported for the following: `NC(=O)OCC(COC(N)=O)c1ccccc1`
Reply | 3.1

Ask | Give the value of inhibition at 10 µM reported for the following: `C[C@]12CC[C@@H]3c4ccc(O)cc4CC[C@H]3[C@@H]1C[C@@H](O)[C@@H]2O`
Reply | 5.4

Ask | Give the value of inhibition at 10 µM reported for the following: `CC(C)CCNc1ncccc1C(=O)N1CCN(Cc2ccccc2)CC1`
Reply | -30.1

Ask | Give the value of inhibition at 10 µM reported for the following: CCCC1O[C@@H]2C[C@H]3[C@@H]4CCC5=CC(=O)C=C[C@]5(C)[C@H]4[C@@H](O)C[C@]3(C)[C@]2(C(=O)CO)O1 (stereo partly shown)
Reply | -13.1
